Target Desc: PI3-kinase p110-alpha/p85-alpha (Homo sapiens)
Sequence (P27986 whole entry): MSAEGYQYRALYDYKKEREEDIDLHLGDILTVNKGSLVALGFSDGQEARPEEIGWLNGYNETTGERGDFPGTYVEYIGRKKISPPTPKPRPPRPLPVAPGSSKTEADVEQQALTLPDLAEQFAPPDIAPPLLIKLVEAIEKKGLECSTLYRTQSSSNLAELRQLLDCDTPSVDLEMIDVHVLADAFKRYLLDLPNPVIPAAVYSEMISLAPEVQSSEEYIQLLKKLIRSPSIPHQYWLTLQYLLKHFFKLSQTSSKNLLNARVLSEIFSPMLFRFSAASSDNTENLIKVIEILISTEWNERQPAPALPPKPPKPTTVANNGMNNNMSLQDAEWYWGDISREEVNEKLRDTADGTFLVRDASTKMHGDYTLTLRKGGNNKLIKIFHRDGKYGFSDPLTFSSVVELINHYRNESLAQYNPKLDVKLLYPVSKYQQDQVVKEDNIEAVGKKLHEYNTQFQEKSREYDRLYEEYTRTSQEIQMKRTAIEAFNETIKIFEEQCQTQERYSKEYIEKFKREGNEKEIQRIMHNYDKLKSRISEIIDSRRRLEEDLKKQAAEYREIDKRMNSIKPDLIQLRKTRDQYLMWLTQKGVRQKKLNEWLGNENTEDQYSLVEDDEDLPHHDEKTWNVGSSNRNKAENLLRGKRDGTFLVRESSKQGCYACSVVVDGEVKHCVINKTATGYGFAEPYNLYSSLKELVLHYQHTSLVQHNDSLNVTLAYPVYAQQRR
Sequence (P42336 whole entry): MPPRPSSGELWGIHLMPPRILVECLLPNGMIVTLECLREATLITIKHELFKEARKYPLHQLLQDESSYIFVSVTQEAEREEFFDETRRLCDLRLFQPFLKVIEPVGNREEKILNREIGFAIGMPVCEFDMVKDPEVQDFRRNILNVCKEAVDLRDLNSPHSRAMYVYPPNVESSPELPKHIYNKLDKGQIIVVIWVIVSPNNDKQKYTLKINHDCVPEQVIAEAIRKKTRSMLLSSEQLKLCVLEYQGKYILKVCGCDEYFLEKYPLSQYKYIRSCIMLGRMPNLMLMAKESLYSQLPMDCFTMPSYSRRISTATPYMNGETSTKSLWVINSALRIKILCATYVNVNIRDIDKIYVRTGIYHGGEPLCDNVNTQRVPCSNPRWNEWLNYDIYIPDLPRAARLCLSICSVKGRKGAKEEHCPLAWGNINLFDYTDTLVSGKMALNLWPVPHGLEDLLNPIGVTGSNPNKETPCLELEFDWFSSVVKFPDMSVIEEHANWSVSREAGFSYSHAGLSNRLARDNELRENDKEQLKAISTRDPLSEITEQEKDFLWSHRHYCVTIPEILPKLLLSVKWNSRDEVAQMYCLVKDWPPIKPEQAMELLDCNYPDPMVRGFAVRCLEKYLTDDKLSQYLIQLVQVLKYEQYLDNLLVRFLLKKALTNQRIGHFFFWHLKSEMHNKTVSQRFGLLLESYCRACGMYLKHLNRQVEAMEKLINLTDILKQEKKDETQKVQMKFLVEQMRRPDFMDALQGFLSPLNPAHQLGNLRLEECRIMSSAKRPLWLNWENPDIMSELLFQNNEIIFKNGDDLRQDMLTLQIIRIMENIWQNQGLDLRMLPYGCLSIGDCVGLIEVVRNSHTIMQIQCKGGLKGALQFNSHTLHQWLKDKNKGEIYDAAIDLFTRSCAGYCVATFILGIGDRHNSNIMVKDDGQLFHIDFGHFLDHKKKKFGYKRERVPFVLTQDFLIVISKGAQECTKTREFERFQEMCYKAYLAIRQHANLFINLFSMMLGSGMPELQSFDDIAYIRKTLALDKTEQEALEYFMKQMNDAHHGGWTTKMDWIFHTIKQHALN
Measurement Description: Inhibition of alexa fluor 647-labeled kinase tracer 314 binding to recombinant human full-length N-terminal His6-tagged p110alpha/p85alpha expressed in baculovirus expression system by TR-FRET assay
Endpoint Name: Ki (nM)

[[record]]
input_smiles = "Nc1ccc(-c2nc(N3CC4CCC(C3)O4)c3c(n2)N2CCOC[C@@H]2C3)cn1"
target_desc = "PI3-kinase p110-alpha/p85-alpha (Homo sapiens)"
reported_result = 1220

[[record]]
input_smiles = "C[C@@H]1COCCN1c1nc(-c2cnc(N)nc2)nc2c1C[C@@H]1COCCN21"
target_desc = "PI3-kinase p110-alpha/p85-alpha (Homo sapiens)"
reported_result = 536


a: Nc1ccc(-c2nc(N3CCOCC3)c3c(n2)N2CCOC[C@H]2C3)cn1
b: Nc1ccc(-c2nc(N3CCOCC3)nc3c2C[C@H]2COCCN32)cn1
c: Nc1ccc(-c2nc(N3C4CCC3COC4)c3c(n2)N2CCOC[C@@H]2C3)cn1
Prompt: Ranking field: Ki; order: falling. Record the ranking as a list of labels in the requested order.
Response: c, b, a

* * *

Target Desc: CYP1A2 (Homo sapiens)
Sequence (P05177 whole entry): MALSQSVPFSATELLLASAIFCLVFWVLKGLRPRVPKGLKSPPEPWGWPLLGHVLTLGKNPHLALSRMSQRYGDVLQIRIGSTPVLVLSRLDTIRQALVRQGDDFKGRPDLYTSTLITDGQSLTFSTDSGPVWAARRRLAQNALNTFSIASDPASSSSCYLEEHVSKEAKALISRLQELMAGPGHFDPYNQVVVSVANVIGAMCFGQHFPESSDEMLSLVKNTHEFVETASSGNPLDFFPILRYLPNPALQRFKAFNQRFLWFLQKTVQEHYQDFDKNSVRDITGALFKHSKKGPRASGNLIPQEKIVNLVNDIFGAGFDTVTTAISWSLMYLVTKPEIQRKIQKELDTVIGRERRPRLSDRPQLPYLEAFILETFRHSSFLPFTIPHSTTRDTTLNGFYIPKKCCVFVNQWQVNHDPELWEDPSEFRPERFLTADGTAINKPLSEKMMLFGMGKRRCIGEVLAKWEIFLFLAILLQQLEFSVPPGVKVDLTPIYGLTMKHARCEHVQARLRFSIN
Measurement Description: Drug metabolism assessed as recombinant human CYP1A2-mediated compound hydrolysis by measuring parent compound remaining incubated for 60 mins by LC-HRMS analysis
Assay type: ADME
Condition Info: read-out: Stability
Endpoint Name: remaining at 1 h (%)
A number alone suffices; assume %.

Bench note, CYP1A2 (Homo sapiens): entry C[C@@H]1COCCN1c1nc(-c2cnc(N)nc2)nc2c1C[C@@H]1COCCN21 , its remaining at 1 h = 99.7

* * *

Measurement Description: Stability in human hepatocytes assessed as parent compound remaining at 5 uM after 3 hrs by LC-MS analysis
Type: ADME, cell-based, Hepatocyte
Condition Info: read-out: Stability
Endpoint Name: remaining at 3 h, 5 µM (%)
A number alone suffices; assume %.

Lab book: remaining at 3 h, 5 µM of C[C@@H]1COCCN1c1nc(-c2cnc(N)nc2)nc2c1C[C@@H]1COCCN21 noted as 93.2

* * *

Measurement Description: AUC (0 to 8 hrs) in Sprague-Dawley rat plasma at 5 mg/kg, po by UHPLC-MS analysis
Format: ADME, organism-based
Parameters: time < 8 hr, dose 5 mg/kg, route oral
Endpoint Name: AUC(0-t) at 8 h (ng·h/mL)
A number alone suffices; assume ng·h/mL.

Lab book: AUC(0-t) at 8 h of C[C@@H]1COCCN1c1nc(-c2cnc(N)cn2)nc2c1C[C@@H]1COCCN21 noted as 5730

The reported measurements were obtained from ChEMBL document CHEMBL4321805.
